Test system: sandwich-cultured human hepatocytes
experiment_notes: Drug-induced cholestasis (DIC) assay: urea formation in sandwich-cultured human hepatocytes with and without the bile salt mixture
experimental_parameters: lowest in vitro concentration with DICI < 0.78 / Cmax,total; 24 h incubation
# DICI-based SM obtained with the ‘original’ LOAEL method 24 h per record follows
readout_label: DICI-based SM obtained with the ‘original’ LOAEL method 24 h

# molecule, tested_on, result
records = [
    ("CN(C)CCCN1c2ccccc2Sc2ccc(Cl)cc21 [Chlorpromazine, chlorpromazine]", "sandwich-cultured human hepatocytes", 265.96),
    ("Cc1c(C)c2c(c(C)c1O)CCC(C)(COc1ccc(CC3SC(=O)NC3=O)cc1)O2 (stereo not shown) [Troglitazone, troglitazone]", "sandwich-cultured human hepatocytes", 15.65),
    ("O=c1[nH]c(=O)n([C@@H]2O[C@H](CO)[C@@H](O)[C@@H]2F)cc1I [Fialuridine, fialuridine]", "sandwich-cultured human hepatocytes", 468.75),
    ("COC(=O)N[C@H](C(=O)N[C@@H](Cc1ccccc1)[C@@H](O)CN(Cc1ccc(-c2ccccn2)cc1)NC(=O)[C@@H](NC(=O)OC)C(C)(C)C)C(C)(C)C [Atazanavir, atazanavir]", "sandwich-cultured human hepatocytes", 31.12),
]

----------
Consider the following compounds and their measured DICI-based SM obtained with the ‘original’ LOAEL method 48 h readings.
Test system: sandwich-cultured human hepatocytes
experiment_notes: Drug-induced cholestasis (DIC) assay: urea formation in sandwich-cultured human hepatocytes with and without the bile salt mixture
experimental_parameters: lowest in vitro concentration with DICI < 0.78 / Cmax,total; 48 h incubation
readout_label: DICI-based SM obtained with the ‘original’ LOAEL method 48 h

# compound, tested_on, measured_number
data = [
    ("CCC(=O)O[C@@H]1CC(=O)O[C@H](C)C/C=C/C=C/[C@H](O)[C@H](C)C[C@H](CC=O)[C@H](O[C@@H]2O[C@H](C)[C@@H](O[C@H]3C[C@@](C)(O)[C@@H](OC(=O)CC)[C@H](C)O3)[C@H](N(C)C)[C@H]2O)[C@H]1OC", "sandwich-cultured human hepatocytes", 50),
    ("C1CCC(C(CC2CCCCN2)C2CCCCC2)CC1 (centres unmarked)", "sandwich-cultured human hepatocytes", 30.09),
    ("CCN(CC)C(=O)/C(C#N)=C/c1cc(O)c(O)c([N+](=O)[O-])c1", "sandwich-cultured human hepatocytes", 29.95),
    ("COc1ccccc1Oc1c(NS(=O)(=O)c2ccc(C(C)(C)C)cc2)nc(-c2ncccn2)nc1OCCO", "sandwich-cultured human hepatocytes", 27.06),
    ("Cc1ccc(C(=O)c2cc(O)c(O)c([N+](=O)[O-])c2)cc1", "sandwich-cultured human hepatocytes", 1.05),
    ("CCOC(=O)CN[C@@H](C(=O)N1CC[C@H]1C(=O)NCc1ccc(/C(N)=N\\O)cc1)C1CCCCC1", "sandwich-cultured human hepatocytes", 500),
    ("COC(=O)N[C@H](C(=O)N[C@@H](Cc1ccccc1)[C@@H](O)CN(Cc1ccc(-c2ccccn2)cc1)NC(=O)[C@@H](NC(=O)OC)C(C)(C)C)C(C)(C)C", "sandwich-cultured human hepatocytes", 31.12),
    ("CCc1ccc(CCOc2ccc(CC3SC(=O)NC3=O)cc2)nc1 (centres unmarked)", "sandwich-cultured human hepatocytes", 101.69),
    ("Cc1c(C)c2c(c(C)c1O)CCC(C)(COc1ccc(CC3SC(=O)NC3=O)cc1)O2 (centres unmarked)", "sandwich-cultured human hepatocytes", 15.65),
    ("O=C1CC2(CCCC2)CC(=O)N1CCCCN1CCN(c2ncccn2)CC1", "sandwich-cultured human hepatocytes", 15000),
    ("CCc1nn(CCCN2CCN(c3cccc(Cl)c3)CC2)c(=O)n1CCOc1ccccc1", "sandwich-cultured human hepatocytes", 7.04),
]
